// values below are reported ED50 (ug injection-1)
TARGET_OR_SYSTEM: Gonadotropin-releasing hormone receptor (Rattus norvegicus) (UniProt P30969)
Sequence (whole entry): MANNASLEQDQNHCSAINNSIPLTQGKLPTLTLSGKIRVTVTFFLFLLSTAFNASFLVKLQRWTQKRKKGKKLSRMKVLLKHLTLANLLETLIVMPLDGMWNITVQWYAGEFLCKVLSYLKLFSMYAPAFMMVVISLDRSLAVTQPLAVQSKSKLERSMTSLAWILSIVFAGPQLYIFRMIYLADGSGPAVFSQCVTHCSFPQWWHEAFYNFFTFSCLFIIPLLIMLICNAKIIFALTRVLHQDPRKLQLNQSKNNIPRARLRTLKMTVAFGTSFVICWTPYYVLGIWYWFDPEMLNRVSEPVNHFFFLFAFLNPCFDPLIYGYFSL
PROCEDURE_DETAILS: Antiovulatory activity on diestrus II following administration as a solution in corn oil (24h earlier) in rat.
Assay type: functional, organism-based
Square brackets hold non-standard residues; d marks the D form. Peptide text beside a SMILES is read from it. dPhe(4-Cl) = N[C@H](Cc1ccc(Cl)cc1)C(=O)O

- COMPOUND: "CCCCNC(=NCCCC[C@@H](NC(=O)[C@H](Cc1ccc(O)cc1)NC(=O)[C@H](CO)NC(=O)[C@@H](Cc1c[nH]c2ccccc12)NC(=O)[C@@H](Cc1ccc(Cl)cc1)NC(=O)[C@@H](Cc1ccc2ccccc2c1)NC(C)=O)C(=O)N[C@@H](CC(C)C)C(=O)N[C@@H](CCCN=C(N)N)C(=O)N1CCC[C@H]1C(=O)N[C@H](C)C(N)=O)NCCCC"
  OPERATOR: ">"
  ED50 (ug injection-1): 16
- COMPOUND: "CC(=O)N[C@H](Cc1ccc(Cl)cc1)C(=O)N[C@H](Cc1ccc(Cl)cc1)C(=O)N[C@H](Cc1c[nH]c2ccccc12)C(=O)N[C@@H](CO)C(=O)N[C@@H](Cc1ccc(O)cc1)C(=O)N[C@H](CCCN=C(N)N)C(=O)N[C@@H](CC(C)C)C(=O)N[C@@H](CCCN=C(N)N)C(=O)N1CCC[C@H]1C(=O)N[C@H](C)C(N)=O (Ac-[dPhe(4-Cl)][dPhe(4-Cl)][dW]SY[dR]LRP[dA]-NH2)"
  OPERATOR: "="
  ED50 (ug injection-1): 5
- COMPOUND: "CCNC(=NCCCC[C@@H](NC(=O)[C@H](Cc1ccc(O)cc1)NC(=O)[C@H](CO)NC(=O)[C@@H](Cc1c[nH]c2ccccc12)NC(=O)[C@@H](Cc1ccc(Cl)cc1)NC(=O)[C@@H](Cc1ccc(Cl)cc1)NC(C)=O)C(=O)N[C@@H](CC(C)C)C(=O)NC(CCCN=C(N)N)C(=O)N1CCC[C@H]1C(=O)N[C@H](C)C(N)=O)NCC (stereo partly specified)"
  OPERATOR: "="
  ED50 (ug injection-1): 3.3
- COMPOUND: "CC(=O)N[C@H](Cc1ccc(Cl)cc1)C(=O)N[C@H](Cc1ccc(Cl)cc1)C(=O)N[C@H](Cc1c[nH]c2ccccc12)C(=O)N[C@@H](CO)C(=O)N[C@@H](Cc1ccc(O)cc1)C(=O)N[C@H](CCCCN=C(N)N)C(=O)N[C@@H](CC(C)C)C(=O)N[C@@H](CCCN=C(N)N)C(=O)N1CCC[C@H]1C(=O)N[C@H](C)C(N)=O"
  OPERATOR: "<"
  ED50 (ug injection-1): 8
- COMPOUND: "CCCNC(=NCCCC[C@@H](NC(=O)[C@H](Cc1ccc(O)cc1)NC(=O)[C@H](CO)NC(=O)[C@@H](Cc1c[nH]c2ccccc12)NC(=O)[C@@H](Cc1ccc(Cl)cc1)NC(=O)[C@@H](Cc1ccc(Cl)cc1)NC(C)=O)C(=O)N[C@@H](CC(C)C)C(=O)N[C@@H](CCCN=C(N)N)C(=O)N1CCC[C@H]1C(=O)NCC(N)=O)NCCC"
  OPERATOR: "="
  ED50 (ug injection-1): 16
- COMPOUND: "CNC(=NCCCC[C@@H](NC(=O)[C@H](Cc1ccc(O)cc1)NC(=O)[C@H](CO)NC(=O)[C@@H](Cc1c[nH]c2ccccc12)NC(=O)[C@@H](Cc1ccc(F)cc1)NC(=O)[C@@H](Cc1ccc2ccccc2c1)NC(C)=O)C(=O)N[C@@H](CC(C)C)C(=O)N[C@@H](CCCN=C(N)N)C(=O)N1CCC[C@H]1C(=O)NCC(N)=O)NC"
  OPERATOR: "="
  ED50 (ug injection-1): 5
